Read-out: growth arrest and DNA damage 45 (GADD45A), GADD45A (gene 1647)
Assay: LTEA_HepaRG_GADD45A: Life Technologies and Expression Analysis (LTEA) Assay for growth arrest and DNA damage 45 (GADD45A) using HepaRG (AID 2283458)
Details: mRNA level, 48 h; actives raise or lower the signal
Active and inactive are the calls of the source. Rule for the calls: active = hit-call score of the fitted dose curve at least 0.9, where 1 is the maximum; inactive = score below 0.9.
Pick one: active, inactive

Take a look at these entries with their results.
CN(C)C=O ... inactive
OC1CCC(C2CCCCC2)CC1 (stereo not drawn) ... inactive
CCCCCCC(=O)O ... inactive

Record request — test call for CC(=O)NC1(c2cccc(F)c2)CCN(CC[C@@]2(c3ccc(Cl)c(Cl)c3)CN(c3ccccc3)C(=O)CO2)CC1 inactive

Record request — test call for CCCCCCCC(=O)O inactive

Record request — test call for CC(C)(C)c1cc(C(C)(C)C)c(O)c(C(C)(C)C)c1 inactive

Record request — test call for O=c1c(-c2ccc(O)cc2)coc2cc(O)ccc12 inactive

Record request — test call for CC[C@H](c1ccc(O)cc1)[C@@H](CC)c1ccc(O)cc1 active

Record request — test call for CN1CCC[C@H]1c1cccnc1 inactive

Record request — test call for C#C[C@]1(O)CC[C@H]2[C@@H]3CCC4=CC(=O)CC[C@@H]4[C@H]3CC[C@@]21C inactive

Record request — test call for Cc1oc(-c2ccccc2)nc1CCOc1ccc(C[C@H](Nc2ccccc2C(=O)c2ccccc2)C(=O)O)cc1 active

Record request — test call for CCCOc1sc(C(=O)N2CCC(c3cc(CN)ccc3F)CC2)c(C)c1Br inactive

Record request — test call for CC(C)(C)CC(C)(C)c1ccc(O)c(-n2nc3ccccc3n2)c1 inactive

Record request — test call for CCCCC(CC)COC(=O)CCCCC(=O)OCc1ccccc1 (stereo not drawn) inactive

Record request — test call for CC1=C(/C=C/C(C)=C/C=C/C(C)=C/C(=O)O)C(C)(C)CCC1 inactive

Record request — test call for Nc1cccc2c(N)cccc12 inactive

Record request — test call for CCOC(=O)CC(O)(CC(=O)OCC)C(=O)OCC inactive

Record request — test call for CCC(=C(c1ccc(O)cc1)c1ccc(OCCN(C)C)cc1)c1ccccc1 inactive

====

Read-out: Caspase-3 (Homo sapiens) (UniProt P42574)
Sequence (P42574 whole entry, looked up): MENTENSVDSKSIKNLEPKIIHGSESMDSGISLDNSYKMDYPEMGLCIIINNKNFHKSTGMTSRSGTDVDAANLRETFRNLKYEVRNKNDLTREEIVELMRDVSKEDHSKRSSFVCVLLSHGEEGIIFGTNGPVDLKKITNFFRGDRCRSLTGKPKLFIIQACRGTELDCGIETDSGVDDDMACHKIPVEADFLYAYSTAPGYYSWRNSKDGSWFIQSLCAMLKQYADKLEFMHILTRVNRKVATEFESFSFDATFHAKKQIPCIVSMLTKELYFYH
Experiment: LTEA_HepaRG_CASP3: Life Technologies and Expression Analysis (LTEA) Assay for cysteine-aspartic acid protease (CASP3) using HepaRG (AID 2283477)
Conditions: mRNA level, 48 h; actives raise or lower the signal
Protocol: LTEA_HepaRG is a cell based, multiplexed-readout assay that uses HepaRG, a human liver cell line, with measurements taken at 48 hours after chemical dosing on a 96-well plate.LTEA_HepaRG_CASP3 is one of 102 assay component(s) measured in the LTEA HepaRG cell culture assay. It is a marker of Cell proliferation, survival, death.Data from the assay component LTEA_HepaRG_CASP3 was analyzed into 1 endpoint. […]
Activity calls are given as the source filed them. Rule for the calls: active = hit-call score of the fitted dose curve at least 0.9, where 1 is the maximum; inactive = score below 0.9.
Pick one: active, inactive

Take a look at these entries with their results.
CCCCC(CC)COC(=O)CCCCC(=O)OCC(CC)CCCC (stereo not given) ... inactive
CC(C)(C)CC(C)(C)c1ccc(O)c(-n2nc3ccccc3n2)c1 ... inactive
CC(C)(C)c1ccc(O)c(C(C)(C)C)c1 ... inactive
NC(=O)N1C(=O)C(C(=O)c2cc(Cl)cs2)c2cc(F)c(Cl)cc21 (stereo not given) ... active
OC1CCCCC1 ... inactive
COCC(C)OCC(C)O (stereo not given) ... inactive
CCOC(=O)CC(O)(CC(=O)OCC)C(=O)OCC ... inactive
c1ccc2cc3c(ccc4ccccc43)cc2c1 ... inactive

Record request — test call for Oc1cc2ccccc2c2ccccc12 inactive

Record request — test call for CN1CCN(c2ccccc2/C=C2\SCCN(c3ccc(Cl)c(Cl)c3)C2=O)CC1 inactive

Record request — test call for CC[C@H](c1ccc(O)cc1)[C@@H](CC)c1ccc(O)cc1 active

Record request — test call for CN(C)C=O inactive

Record request — test call for CC(C)(C)c1cccc(C(C)(C)C)c1O inactive

Record request — test call for CC(=O)CC(C)(C)O inactive

Record request — test call for CCCCCCCCCCCCc1ccccc1S(=O)(=O)O inactive

====

Read-out: Alpha-fetoprotein (AFP) gene, AFP (gene 174)
Experiment: LTEA_HepaRG_AFP: Life Technologies and Expression Analysis (LTEA) Assay for Alpha-fetoprotein (AFP) gene using HepaRG (AID 2283472)
Settings: mRNA level, 48 h; actives raise or lower the signal
Calls of active or inactive are those of the source. Rule for the calls: active = hit-call score of the fitted dose curve at least 0.9, where 1 is the maximum; inactive = score below 0.9.
Pick one: active, inactive

CCC(C)(C)C1CCC(O)CC1 (configuration not stated) ... inactive
CCCCCCC(=O)O ... inactive
COc1ccc([N+](=O)[O-])cc1N ... inactive

Continue with the next compound.
Record request — test call for c1ccc2cc3c(ccc4ccccc43)cc2c1 active

====

Read-out: ABC Transporter (ABCB11), ABCB11 (gene 8647)
Test: LTEA_HepaRG_ABCB11: Life Technologies and Expression Analysis (LTEA) Assay for ABC Transporter (ABCB11) using HepaRG (AID 2283463)
Settings: mRNA level, 48 h; actives raise or lower the signal
Activity calls are given as the source filed them. How the source made its calls: active means hit-call score of the fitted dose curve at least 0.9, where 1 is the maximum; inactive means score below 0.9.
Pick one: active, inactive

COCC(C)OCC(C)O (stereo not drawn) ... inactive
CCCOC(=O)c1ccc(O)cc1 ... inactive
CCCCC(CC)COC(=O)CCCCC(=O)OCc1ccccc1 (stereo not drawn) ... inactive
CC(O)CO (stereo not drawn) ... inactive
O=C(O)Cc1cc(I)c(Oc2cc(I)c(O)c(I)c2)c(I)c1 ... active

Record request — test call for ClC1=C(Cl)C(Cl)(Cl)C(Cl)=C1Cl inactive

Record request — test call for NC(=O)N(O)[C@@H]1C=C[C@H](Oc2cccc(Oc3ccc(F)cc3)c2)C1 active

Record request — test call for CC(=O)CC(C)(C)O inactive

Record request — test call for C[C@@H]1C[C@H]2[C@@H]3CCC4=CC(=O)C=C[C@]4(C)[C@@]3(F)[C@@H](O)C[C@]2(C)[C@@]1(O)C(=O)COP(=O)(O)O inactive

Record request — test call for NC(=O)N1C(=O)C(C(=O)c2cc(Cl)cs2)c2cc(F)c(Cl)cc21 (stereo not drawn) active

====

Read-out: Intercellular Adhesion Molecule 1 (ICAM1), ICAM1 (gene 3383)
Assay: BSK_KF3CT_ICAM1: BioMAP Diversity Plus: KF3CT Assay for Intercellular Adhesion Molecule 1 (ICAM1) Biomarker Activity (AID 2283067)
Settings: primary human keratinocytes with fibroblasts; actives raise or lower the signal
Calls of active or inactive are those of the source. The calls were made as follows: active = hit-call score of the fitted dose curve at least 0.9, where 1 is the maximum; inactive = score below 0.9.
Pick one: True (active), False (inactive)

CCCCC(CC)COC(=O)CCCCC(=O)OCc1ccccc1 (configuration not stated) ... False
OC1CCCCC1 ... False
CC[C@H](C)[C@@H](C(=O)O)n1sc2ccccc2c1=O ... False
O=C(OCCOCCOC(=O)c1ccccc1)c1ccccc1 ... False
C#C[C@]1(O)CC[C@H]2[C@@H]3CCC4=CC(=O)CC[C@@H]4[C@H]3CC[C@@]21C ... False
OC1CCC(C2CCCCC2)CC1 (configuration not stated) ... False
CCCCCCCC(=O)O ... False
CC#C[C@]1(O)CC[C@H]2[C@@H]3CCC4=CC(=O)CCC4=C3[C@@H](c3ccc(N(C)C)cc3)C[C@@]21C ... True

Record request — test call for CCCCC(CC)COC(=O)CCCCC(=O)OCC(CC)CCCC (configuration not stated) False

Record request — test call for CC(=O)NC1(c2cccc(F)c2)CCN(CC[C@@]2(c3ccc(Cl)c(Cl)c3)CN(c3ccccc3)C(=O)CO2)CC1 False

Record request — test call for c1ccc2cc3c(ccc4ccccc43)cc2c1 False

Record request — test call for CCCCCCCCCCCCc1ccccc1S(=O)(=O)O True

====

Read-out: urokinase plasminogen activator (uPA), PLAU (gene 5328)
Test: BSK_KF3CT_uPA: BioMAP Diversity Plus: KF3CT Assay for urokinase plasminogen activator (uPA) Biomarker Activity (AID 2283075)
Settings: primary human keratinocytes with fibroblasts; actives raise or lower the signal
Activity calls are given as the source filed them. The calls were made as follows: active = hit-call score of the fitted dose curve at least 0.9, where 1 is the maximum; inactive = score below 0.9.
QUANTITY_MEASURED: AC50

Answered cases to consult:
CCN(CC)CCNc1ccc(CNC=O)c2sc3ccc(OC)cc3c(=O)c12 ... 25.8 µM (active)
CCCCCCCCOC(=O)CCCCCCCCC(=O)OCCCCCCCC ... inactive
O=C(O)c1ccccc1C(c1ccc(O)cc1)c1ccc(O)cc1 ... inactive
COCC(C)OCC(C)O (configuration not stated) ... inactive
C=C(C)C(=O)OCCC(F)(F)C(F)(F)C(F)(F)C(F)(F)C(F)(F)C(F)(F)F ... inactive
CC(=O)CC(C)(C)O ... inactive
CCCCC(CC)COC(=O)CCCCC(=O)OCC(CC)CCCC (configuration not stated) ... inactive
CCCCCCCCC(=O)O ... inactive

Data request, read-out AC50, for NC(=O)N(O)[C@@H]1C=C[C@H](Oc2cccc(Oc3ccc(F)cc3)c2)C1 inactive

Data request, read-out AC50, for CCc1ccc(CCOc2ccc(CC3SC(=O)NC3=O)cc2)nc1 (configuration not stated) inactive

Data request, read-out AC50, for CC(=O)NC1(c2cccc(F)c2)CCN(CC[C@@]2(c3ccc(Cl)c(Cl)c3)CN(c3ccccc3)C(=O)CO2)CC1 27 µM (active)

Data request, read-out AC50, for NC(=O)N1C(=O)C(C(=O)c2cc(Cl)cs2)c2cc(F)c(Cl)cc21 (configuration not stated) 12.5 µM (active)
